B1: 1-phosphatidylinositol 4,5-bisphosphate phosphodiesterase gamma-2, residues 772 to 827; numbered along this chain, P16885 (parent)
chain: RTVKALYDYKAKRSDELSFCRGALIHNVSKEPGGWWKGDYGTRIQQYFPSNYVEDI

Variants of: B1
Experiment: abundance fitness (aPCA) (normalised: wild type 0, dead -1); higher = more abundant; growth selection in yeast, the domain comes from the species named
Conditions: Homo sapiens
metric: abundance fitness
Note: the reply should be a number with no unit written.

Worked examples follow.
RTVKALYDYKAKRSDELSFCRGALIHNVSKEPGGWWKGDYGTRIQQYFPSNGVEDI [Y52G]: -0.787
RTVKALYDYKAKRSDELSFCRGALIHNVSKEPGGWWKGDYGTRYQQYFPSNYVEDI [I44Y]: -0.116

Incoming: Give the measured abundance fitness for RTVKALYDYKAKRSDELSFCRGALIHNVSKEPGGWWKGDYGTRIQQYFPSNYVEMI [D55M]
Outgoing: 0.086

Incoming: Identify measured abundance fitness associated with RTVKALYDYKARRSDELSFCRGALIHNVSKEPGGWWKGDYGTRIQQYFPSNYVEDI [K12R]
Outgoing: -0.092
